Where do the numbers come from? From paper PMC6270246.

# Test system: Sierra Leone D6 chloroquine-sensitive Plasmodium falciparum strain
# assay: Malaria SYBR Green I-based in vitro drug susceptibility assay, D6 strain
# Format: cell-based
# reported.conditions: D6, read-out: IC50 (D6)
measure.name: pIC50
In plain terms, pIC50 is the concentration in mol/L turned into minus its base-10 logarithm.

Prompt line: Recorded pIC50 for CCN(CC)CCCC(C)Nc1ccnc2cc(Cl)ccc12 (stereo not shown) , please?
Response line: 7.83

---

# assay: Cytotoxicity assay (PrestoBlue cell viability, 48 h)
# Assay type: cell-based
# reported.conditions: human, MCF-7 breast cancer cells, MCF-7 cells, mean of at least six independent experiments, read-out: CC50 (cytotoxic concentration)
measure.name: CC50 at 48 h (µM)
Numeric answer only, unit µM assumed.

molecule | CC50 at 48 h (µM)
CC(C)n1nc(C#Cc2ccncc2)c2c(N)ncnc21 [reference compound] | 5

Now for a further molecule.
Prompt line: Recorded CC50 at 48 h for COCc1c(O)cc2c(c1O)C(=O)c1ccc(O)c(O)c1C2=O [Compound 6] , please?
Response line: 258
